Target: HCV RdRp (NS5B)
// values below are reported IC50

> print(dat)
                                   compound  parameter       result
1  Cc1cc2cc(NC(=O)C(CCCCN)NC(=O)OCC3c4ccccc4-c4ccccc43)ccc2[nH]1 (stereo not shown)       IC50  10 to 50 µM

Here's the next entry for you.
Qu. Quick one: IC50 of Cc1ccc(NC(=O)[C@H](CCCCN)NS(=O)(=O)c2cccc3ccccc23)cc1 ?
Ans. > 50 µM

###

Here we list compounds with their recorded IC50 when tested on UniProtKB P26663.

> print(dat)
                                   compound       result
1  Cc1ccc(NC(=O)[C@H](CCCCN)NC(=O)Nc2ccc(OCc3ccc(Cl)cc3)cc2)cc1 [Compound 273]      < 10 µM
2  Cc1ccc(NC(=O)C(Cc2c[nH]c3ccccc23)NC(=O)OCC2c3ccccc3-c3ccccc32)cc1 (stereo not shown) [Compound 379]      > 50 µM
3  COc1ccc(C[C@H](N)C(=O)Nc2ccc(CN(C(=O)c3ccco3)C3CCCCC3)cc2)cc1 [Compound 9]      > 50 µM
4  Cc1cc2cc(NC(=O)[C@H](CCCCNC(=O)CN)NC(=O)Nc3ccc4c(c3)Cc3ccccc3-4)ccc2[nH]1 [Compound 298]      > 50 µM
5  N[C@@H](CCNC(=O)OCC1c2ccccc2-c2ccccc21)C(=O)Nc1ccc(CN(C(=O)c2ccco2)C2CCCCC2)cc1 [Compound 14]  10 to 50 µM

Qu. Any idea what IC50 came out for Cc1ccc(N(C)C(=O)C(CCCCN)NC(=O)OCC2c3ccccc3-c3ccccc32)cc1 (stereo not shown) [Compound 92] on UniProtKB P26663?
Ans. > 50 µM

Qu. Form field - read-out: IC50; system: UniProtKB P26663; submitted item: Cc1ccc(NC(=O)C(CCCCN)NC(=O)CNCc2ccccc2C)cc1 (stereo not shown) [Compound 338]
Ans. > 50 µM

Qu. Form field - read-out: IC50; system: UniProtKB P26663; submitted item: Cc1ccc(NC(=O)[C@H](CCCCN)NC(=O)CNc2cccc(Oc3ccccc3)c2)cc1 [Compound 367]
Ans. < 10 µM

Qu. Lab request: please report IC50 under test system UniProtKB P26663 for NCCCC[C@H](NC(=O)[C@@H](N)Cc1c[nH]c2ccccc12)C(=O)Nc1ccc(CN(C(=O)c2ccco2)C2CCCCC2)cc1 [Compound 23]
Ans. 10 to 50 µM

###

// values below are reported IC50
Biological target: HCV RdRp (NS5B) (UniProt P26663)
Sequence (P26663 whole entry, looked up): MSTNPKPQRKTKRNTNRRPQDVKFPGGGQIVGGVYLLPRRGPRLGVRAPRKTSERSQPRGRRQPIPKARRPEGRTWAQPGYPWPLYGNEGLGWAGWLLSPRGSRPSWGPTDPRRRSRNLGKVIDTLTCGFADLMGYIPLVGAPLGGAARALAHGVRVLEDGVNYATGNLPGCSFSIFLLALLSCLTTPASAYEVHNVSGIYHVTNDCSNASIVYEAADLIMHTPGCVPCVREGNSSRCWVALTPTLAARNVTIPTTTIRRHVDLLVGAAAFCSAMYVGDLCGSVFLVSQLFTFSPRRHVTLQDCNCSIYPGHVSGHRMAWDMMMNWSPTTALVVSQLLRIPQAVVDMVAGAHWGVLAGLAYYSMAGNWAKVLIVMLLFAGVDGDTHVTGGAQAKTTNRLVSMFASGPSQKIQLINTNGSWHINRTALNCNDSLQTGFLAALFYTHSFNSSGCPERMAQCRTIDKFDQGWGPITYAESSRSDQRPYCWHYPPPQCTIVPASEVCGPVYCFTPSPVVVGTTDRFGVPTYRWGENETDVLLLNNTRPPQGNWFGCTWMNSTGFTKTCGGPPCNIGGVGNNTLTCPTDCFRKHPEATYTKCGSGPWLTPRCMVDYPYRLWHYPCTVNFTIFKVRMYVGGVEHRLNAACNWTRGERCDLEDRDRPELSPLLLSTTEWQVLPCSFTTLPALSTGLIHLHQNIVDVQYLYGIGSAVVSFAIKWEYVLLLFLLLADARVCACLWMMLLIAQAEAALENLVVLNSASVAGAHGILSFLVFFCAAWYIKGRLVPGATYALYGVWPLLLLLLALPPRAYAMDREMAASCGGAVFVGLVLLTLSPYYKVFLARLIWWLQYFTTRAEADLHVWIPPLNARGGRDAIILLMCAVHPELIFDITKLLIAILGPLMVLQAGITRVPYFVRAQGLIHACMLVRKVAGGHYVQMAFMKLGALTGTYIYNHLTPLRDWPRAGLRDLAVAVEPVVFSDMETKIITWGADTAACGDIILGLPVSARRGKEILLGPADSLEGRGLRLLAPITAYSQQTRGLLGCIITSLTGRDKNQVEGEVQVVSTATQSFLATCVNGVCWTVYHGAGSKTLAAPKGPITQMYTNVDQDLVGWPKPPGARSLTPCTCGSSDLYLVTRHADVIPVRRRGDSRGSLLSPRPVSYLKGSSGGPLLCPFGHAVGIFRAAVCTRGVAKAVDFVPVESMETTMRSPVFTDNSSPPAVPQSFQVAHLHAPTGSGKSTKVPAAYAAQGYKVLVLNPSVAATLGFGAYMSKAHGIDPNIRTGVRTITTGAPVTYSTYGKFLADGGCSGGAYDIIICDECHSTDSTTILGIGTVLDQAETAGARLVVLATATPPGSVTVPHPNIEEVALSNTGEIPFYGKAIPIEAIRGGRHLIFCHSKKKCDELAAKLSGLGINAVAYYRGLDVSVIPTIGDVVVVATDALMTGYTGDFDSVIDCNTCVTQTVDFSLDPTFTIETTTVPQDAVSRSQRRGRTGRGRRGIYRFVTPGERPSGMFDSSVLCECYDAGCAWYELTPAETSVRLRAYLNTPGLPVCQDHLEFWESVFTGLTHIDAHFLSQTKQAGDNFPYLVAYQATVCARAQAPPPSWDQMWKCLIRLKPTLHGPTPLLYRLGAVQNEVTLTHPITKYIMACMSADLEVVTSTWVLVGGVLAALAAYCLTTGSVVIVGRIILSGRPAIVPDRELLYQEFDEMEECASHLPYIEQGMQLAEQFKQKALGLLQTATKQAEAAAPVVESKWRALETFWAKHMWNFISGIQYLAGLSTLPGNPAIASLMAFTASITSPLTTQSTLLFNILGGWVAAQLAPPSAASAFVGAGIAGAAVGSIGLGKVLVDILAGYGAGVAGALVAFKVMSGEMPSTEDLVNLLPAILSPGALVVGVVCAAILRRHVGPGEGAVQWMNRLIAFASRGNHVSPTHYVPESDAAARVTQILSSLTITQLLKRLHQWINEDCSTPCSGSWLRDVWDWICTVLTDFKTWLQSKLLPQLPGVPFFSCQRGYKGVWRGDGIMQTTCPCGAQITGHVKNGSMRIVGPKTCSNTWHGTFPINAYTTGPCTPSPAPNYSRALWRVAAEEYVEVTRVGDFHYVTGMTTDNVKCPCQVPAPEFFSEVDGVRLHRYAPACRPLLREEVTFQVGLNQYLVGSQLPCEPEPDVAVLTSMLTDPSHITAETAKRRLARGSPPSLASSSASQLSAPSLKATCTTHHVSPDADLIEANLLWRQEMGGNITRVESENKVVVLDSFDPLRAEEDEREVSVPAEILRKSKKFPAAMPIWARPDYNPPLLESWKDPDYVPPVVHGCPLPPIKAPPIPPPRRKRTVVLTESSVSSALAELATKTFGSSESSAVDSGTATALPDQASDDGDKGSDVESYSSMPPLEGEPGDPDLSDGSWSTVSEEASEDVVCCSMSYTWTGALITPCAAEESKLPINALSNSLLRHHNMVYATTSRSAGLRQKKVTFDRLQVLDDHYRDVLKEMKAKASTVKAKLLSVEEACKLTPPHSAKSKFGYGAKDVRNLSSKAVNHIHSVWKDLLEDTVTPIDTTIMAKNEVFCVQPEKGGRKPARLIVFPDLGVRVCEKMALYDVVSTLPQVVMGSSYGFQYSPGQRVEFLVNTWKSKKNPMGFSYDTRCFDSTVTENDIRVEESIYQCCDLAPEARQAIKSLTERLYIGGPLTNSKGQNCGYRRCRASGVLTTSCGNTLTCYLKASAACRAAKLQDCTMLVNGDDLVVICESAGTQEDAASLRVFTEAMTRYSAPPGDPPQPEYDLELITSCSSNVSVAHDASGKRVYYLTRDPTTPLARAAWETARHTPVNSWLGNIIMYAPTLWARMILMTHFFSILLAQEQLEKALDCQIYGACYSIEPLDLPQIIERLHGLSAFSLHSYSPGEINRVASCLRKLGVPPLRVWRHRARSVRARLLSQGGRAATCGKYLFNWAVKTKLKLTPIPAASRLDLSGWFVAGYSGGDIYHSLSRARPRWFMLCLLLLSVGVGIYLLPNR

Below, 5 compounds whose answers are already recorded.
compound	IC50
Cc1ccc(NC(=O)C(CCNC(=O)CN)NC(=O)OCC2c3ccccc3-c3ccccc32)cc1 (stereo not shown) [Compound 221]	> 50 µM
Cc1ccc(NC(=O)C(CC(=O)O)NC(=O)OCC2c3ccccc3-c3ccccc32)cc1 (stereo not shown) [Compound 371]	> 50 µM
NCCCC[C@@H](NC(=O)Nc1ccc2c(c1)Cc1ccccc1-2)C(=O)Nc1ccc(C2CCCCC2)cc1 [Compound 137]	< 10 µM
Cc1ccc(NC(=O)[C@H](CCCCN)NC(=O)CNc2cccc(C)c2)cc1 [Compound 355]	> 50 µM
Cc1ccc(NC(=O)C2CN(C(=O)CN)CCN2C(=O)Nc2ccc(OCc3ccccc3)cc2)cc1 (racemic) [Compound 308]	> 50 µM

Qu. Tell me the measured IC50 of N[C@@H](Cc1c[nH]c2ccccc12)C(=O)NCCCC[C@H](NC(=O)OCC1c2ccccc2-c2ccccc21)C(=O)Nc1ccc(CN(C(=O)c2ccco2)C2CCCCC2)cc1 [Compound 35] , please.
Ans. < 10 µM

Qu. Please report the recorded IC50 for Cc1ccc(NC(=O)C(CCCC(=O)O)NC(=O)OCC2c3ccccc3-c3ccccc32)cc1 (stereo not shown) [Compound 402] .
Ans. > 50 µM

Where these numbers come from: patent US20070021434A1
